FYI, the data here is from patent US20240228488A1.

Target: human activated kallikrein enzyme (Homo sapiens, UniProt P03952)
Sequence (P03952 391-638 limits assumed): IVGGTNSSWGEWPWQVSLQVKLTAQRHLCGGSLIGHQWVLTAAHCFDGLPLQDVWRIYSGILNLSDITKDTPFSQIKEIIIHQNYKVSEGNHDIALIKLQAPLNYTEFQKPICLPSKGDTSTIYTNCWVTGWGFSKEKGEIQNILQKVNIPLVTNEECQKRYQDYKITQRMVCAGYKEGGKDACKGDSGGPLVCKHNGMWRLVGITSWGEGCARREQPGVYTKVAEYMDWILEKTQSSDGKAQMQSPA
Sequence (P03952 20-390 partner limits assumed): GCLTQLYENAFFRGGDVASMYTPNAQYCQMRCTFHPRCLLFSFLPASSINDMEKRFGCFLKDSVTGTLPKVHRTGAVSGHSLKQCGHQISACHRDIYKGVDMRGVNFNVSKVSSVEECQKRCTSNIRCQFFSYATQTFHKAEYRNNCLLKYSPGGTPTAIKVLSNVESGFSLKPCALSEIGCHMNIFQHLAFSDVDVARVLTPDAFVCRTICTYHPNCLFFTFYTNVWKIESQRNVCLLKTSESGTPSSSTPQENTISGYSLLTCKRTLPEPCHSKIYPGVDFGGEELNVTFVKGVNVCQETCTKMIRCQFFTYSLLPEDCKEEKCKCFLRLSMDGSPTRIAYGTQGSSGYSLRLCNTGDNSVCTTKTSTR
Test: Plasma kallikrein inhibition, fluorogenic PFR-AMC substrate, 500 pM activated kallikrein format
Type: biochemical
Conditions: 500 pM activated kallikrein, 300 uM PFR-AMC, 30 min preincubation, 10 min reaction; read-out: Primary Dose Response Assay: Average EC50
Measured EC50 of individual entries

compound	EC50
COCC1CN(c2cc(C3CC3)cn3cc(CNc4cc(NC(=O)[C@H]5C[C@@H]5c5cccc(Cl)c5)ncn4)nc23)CCN1C (stereo partly drawn)	1 to 10 nM
O=C(Nc1nccc2nn(Cc3cn4cc(C5CC5)ccc4n3)nc12)[C@H]1C[C@@H]1c1cccc(Cl)c1	1 to 10 nM
Cc1ccnc([C@H]2C[C@@H]2C(=O)Nc2cc(N(C)Cc3cn4cc(C5CC5)cc(N5CC(=O)N(CC(C)(C)O)C5=O)c4n3)ncn2)n1	< 1 nM
CN(C)C1CC(=O)N(c2cc(C3CC3)cn3cc(CNc4cc(NC(=O)[C@H]5C[C@@H]5c5cccc(Cl)c5)ncn4)nc23)C1 (stereo partly drawn)	< 1 nM
Cc1ccnc([C@H]2C[C@@H]2C(=O)Nc2cc(OCc3cn4cc(C5CC5)cc(N5CC(=O)N(CCO)C5=O)c4n3)ncn2)n1 (racemic)	< 1 nM
Cc1ccnc([C@H]2C[C@@H]2C(=O)Nc2ncnc3nn(Cc4cn5cc(C6CC6)cc(N6CC(=O)N(C)C6=O)c5n4)cc23)n1 (single isomer, unassigned) [Example I-633]	100 to 1000 nM
Cc1ccnc([C@H]2C[C@@H]2C(=O)Nc2cc(OCc3cn4cc(C5CC5)cc(N5CC(=O)N(C)C5=O)c4n3)ncn2)n1 (single isomer, unassigned)	< 1 nM
Cc1ccnc([C@H]2C[C@@H]2C(=O)Nc2cc(N[C@H](C)c3cn4cc(C5CC5)cc(N5CC(=O)N(C)C5=O)c4n3)ncn2)n1 (single isomer, unassigned)	< 1 nM
O=C(Nc1cc(NCc2cn3cc(C4CC4)ccc3n2)ncn1)[C@H]1[C@H](F)[C@@H]1c1cccc(Cl)c1 (racemic)	1 to 10 nM
Cc1ccnc([C@H]2C[C@@H]2C(=O)Nc2cc(N[C@H](C)c3cn4cc(C(C)(F)F)cc(N5CC(=O)N(C)C5=O)c4n3)ncn2)n1	< 1 nM
Cc1ccnc([C@H]2C[C@@H]2C(=O)Nc2nc(Cl)nc(NCc3cn4cc(C5CC5)cc(N5CC(=O)N(C)C5=O)c4n3)n2)n1 (racemic)	< 1 nM
Cc1ccnc([C@H]2C[C@@H]2C(=O)Nc2cc(N[C@H](C)c3cn4cc(C5CC5)cc(N=S(C)(C)=O)c4n3)nc(C)n2)n1	< 1 nM
O=C(Nc1ncccc1OCc1cn2cc(C3CC3)ccc2n1)[C@H]1C[C@@H]1c1cccc(Cl)c1	100 to 1000 nM
O=C(Nc1cc(NC(c2cn3cc(C4CC4)ccc3n2)C(F)(F)F)ccn1)[C@H]1C[C@@H]1c1cccc(Cl)c1 (stereo partly drawn)	100 to 1000 nM
CCN1CCN(c2cc(C3CC3)cn3cc(CNc4cc(NC(=O)[C@H]5C[C@@H]5c5nccc(C)n5)ncn4)nc23)CC1	< 1 nM
Cc1ccnc([C@H]2C[C@@H]2C(=O)Nc2cc(NCc3cn4cc(C5CC5)cc(N5CC6CC6C5=O)c4n3)ncn2)n1 (relative stereo)	< 1 nM
Cc1ccnc([C@@H]2C[C@H]2C(=O)Nc2cc(NCc3cn4cc(C5CC5)cc(N5CC(=O)N(C)C5=O)c4n3)ncn2)n1 (single isomer, unassigned)	10 to 100 nM
O=C(Nc1cc(NCc2nc3ccc(C4CC4)cn3c2F)ncn1)[C@H]1C[C@@H]1c1cccc(Cl)c1	10 to 100 nM
Cc1ccnc([C@H]2C[C@@H]2C(=O)Nc2cc(N[C@@H](C)c3cn4cc(C5CC5)cc(N5CC(=O)N(C)C5=O)c4n3)nc(C)n2)n1	10 to 100 nM
O=C(Nc1ccnc(NCc2cn3cc(C4CC4)ccc3n2)n1)[C@H]1C[C@@H]1c1cccc(Cl)c1 (racemic)	10 to 100 nM
Cc1ccnc([C@H]2C[C@@H]2C(=O)Nc2cc(N(C)C(C)c3cn4cc(C5CC5)cc(N5CC(=O)N(C)C5=O)c4n3)ncn2)n1 (stereo partly drawn)	1 to 10 nM
COc1cc(NCc2cn3cc(C4CC4)ccc3n2)cc(NC(=O)[C@H]2C[C@@H]2c2cccc(Cl)c2)n1	1 to 10 nM
N#Cc1ccc(Cl)cc1[C@H]1C[C@@H]1C(=O)Nc1cc(NCc2cn3cc(C4CC4)cc(COCCO)c3n2)ccn1 (racemic)	< 1 nM
Cc1ccnc([C@H]2C[C@@H]2C(=O)Nc2cc(N(C)Cc3cn4cc(C5CC5)cc(N5CC(=O)N(CCO)C5=O)c4n3)ncn2)n1	< 1 nM
